protocol-details: chemical genetic growth profiling, strain panel (AID 1159580);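 further: tested at 20 µM; growth read once vehicle control cultures reached saturation at 30 °C; 1 = growth at the plate median or of vehicle wells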
experimental-parameters: S. cerevisiae deletion strains, growth OD, locus YGL248W, strain PDE1
About 2,000 (36%) of roughly 5,500 compounds were called active. Inconclusive results (about 18%) are left out. No stated cut-off is given here; in the data, active means normalized growth mostly below about 0.91 (no sharp cut-off); inconclusive means no clear call, values can overlap the other calls; inactive means mostly above about 0.92. The list shows a part of the results.
Bench note: report the call from active, inactive

CC(CCC(=O)O)[C@H]1CCC2C3CC[C@@H]4C[C@H](O)CC[C@]4(C)C3CC[C@@]21C (some centres undefined) : active
CC[C@H](CCC(C)[C@H]1CCC2C3CCC4C[C@@H](O)CC[C@]4(C)C3CC[C@@]21C)C(C)C (some centres undefined) : inactive
O=c1cc(-c2ccccc2)oc2cc(O)cc(O)c12 : inactive
Cc1nc2sccn2c(=O)c1CCN1CCC(=C(c2ccc(F)cc2)c2ccc(F)cc2)CC1 : active
COc1cc([C@H]2Oc3cc([C@H]4Oc5cc(O)cc(O)c5C(=O)[C@@H]4O)ccc3O[C@@H]2CO)ccc1O : inactive
C[C@H](CCC(=O)O)[C@H]1CCC2C3C(CC[C@@]21C)[C@@]1(C)CC[C@@H](O)C[C@H]1C[C@@H]3O (some centres undefined) : inactive
Clc1ccc2c(c1)C(N1CCNCC1)=Nc1ccccc1O2 : inactive
CC(C)CCCC(C)C1CCC2C3CC[C@H]4CCCC[C@]4(C)C3CC[C@]12C (some centres undefined) : inactive

Shift focus to the following entry.
For CC(CCC(=O)O)[C@H]1CCC2C3C[C@H](O)[C@@H]4C[C@H](O)CC[C@]4(C)C3CC[C@@]21C (some centres undefined) , what call appears in the results of this test?
inactive

----------
protocol-details: chemical genetic growth profiling, strain panel (AID 1159580);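 further: tested at 20 µM; growth read once vehicle control cultures reached saturation at 30 °C; 1 = growth at the plate median or of vehicle wells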
experimental-parameters: S. cerevisiae deletion strains, growth OD, locus YHR079C, strain IRE1, stronger effect = lower value
The whole screen tested about 5,500 compounds, of which about 2,000 (36%) were called active. About 18% were inconclusive and are not listed. This is one part of the list.
observation-type: normalized growth
# answer = number (no unit)

Solved entries (count: 6):
O=C1CSC(c2ccc(C(F)(F)F)cc2)N1c1ccc(C(F)(F)F)cc1 (configuration not stated) : 0.897
N#Cc1ccc(NC(=O)Nc2cccc3ccccc23)cc1 : 0.924
C[C@@H]1CC2C3C[C@H](F)C4=CC(=O)C=C[C@]4(C)[C@@]3(F)[C@@H](O)C[C@]2(C)[C@@]1(O)C(=O)COC(=O)C(C)(C)C (some centres not stated) : 0.972
O=C(Nc1ccccc1)Nc1ccccc1 : 1
CC(=O)Nc1ccccc1 : 0.969
O=C(Nc1ccc(F)c(Cl)c1)c1ccccc1O : 0.632

Next up:
Return reported normalized growth; argument: `O=C(Nc1ccccc1)c1ccccc1O`
0.921

----------
Quick reference: normalized growth of the listed items.
protocol-details: chemical genetic growth profiling, strain panel (AID 1159580);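 further: tested at 20 µM; growth read once vehicle control cultures reached saturation at 30 °C; 1 = growth at the plate median or of vehicle wells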
experimental-parameters: S. cerevisiae deletion strains, growth OD, locus YER016W, strain bim1, stronger effect = lower value
Among all 5,500 compounds or so, about 2,000 (36%) were called active. Another 18% or so got no clear call; they are omitted. This is one part of the list.
Please respond with just the number, no unit label.

# example entries with known answers
Cc1ncc([N+](=O)[O-])n1CC(C)O (stereo not drawn) : 0.983
COc1cc([C@@H]2c3cc4c(cc3[C@H](OC(C)=O)[C@H]3COC(=O)[C@@H]23)OCO4)cc(OC)c1OC : 1.01
O=c1[nH]cnc2[nH]ncc12 : 0.97

Could you tell me which normalized growth is on file for CC1CCC2(OC1)OC1CC3C4CCC5C[C@@H](O)CCC5(C)C4=CCC3(C)C1[C@@H]2C (stereo partly drawn) ?
1

Also need CSc1ccc2c(c1)N(CCC1CCCCN1C)c1ccccc1S2 (stereo not drawn) , thanks.
0.992

Entry NC(Cc1ccc(F)cc1)C(=O)O (stereo not drawn) please
1.02

Quick one: `O=c1cc(-c2ccccc2)oc2c(O)c(O)ccc12`
0.983

What do you get for `S=P(N1CC1)(N1CC1)N1CC1` ?
1

Value source: PubChem BioAssay AID1159580
